Target: Polycomb protein chromodomain (Drosophila melanogaster, UniProt P26017)
Construct: The chromodomain (a.a. 1-90) of Polycomb protein was expressed as GST-tagged fusion protein; made in house
Sequence (P26017 1-90): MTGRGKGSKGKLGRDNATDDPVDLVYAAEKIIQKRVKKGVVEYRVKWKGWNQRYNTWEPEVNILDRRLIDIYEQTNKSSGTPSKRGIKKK
Test: Peptide microarray binding of GST-tagged Polycomb chromodomain
Design: dose or concentration left out as unconfirmed
Details: Binder if at least two of three spots pass p-value cutoff 0.001 from background
Primed or numbered codes have the meaning given here. No end group written: not given here. Me3(3) = trimethyl (trimethylated lysine)
RESULT_TYPE: Array Verification

- ORDERED_RESIDUES: "NLCAIHAKR (NLCAIHAK(Me3(3))R) [9-residue histone peptide, H3_DROME, trimethylated lysine site 115]"
  Array Verification: "NonBinder"
- ORDERED_RESIDUES: "APSTGGVKK (also: trimethylated Lys, site not given here) [9-residue histone peptide, H33_DROME, trimethylated lysine site 36]"
  Array Verification: "NonBinder"
- ORDERED_RESIDUES: "GKDSGKAKA (not fully specified (residue 8); also: trimethylated lysine, site not given here)"
  Array Verification: "NonBinder"
- ORDERED_RESIDUES: "HAVSEGTKA (HAVSEGTK(Me3(3))A)"
  Array Verification: "NonBinder"
- ORDERED_RESIDUES: "EGTKAVTKY (also: trimethylated Lys, site not given here)"
  Array Verification: "Binder"

// query Fill blank: measured Array Verification of the sequence RNDEELNKL (RNDEELNK(Me3(3))L) is ____.
// result NonBinder

// query What value of Array Verification has been recorded for this entry: ASKDLKVKR (not fully specified (residue 8); also: trimethylated lysine, site not given here)
// result Binder

// query # lookup: Array Verification of LLPGELAKH (LLPGELAK(Me3(3))H)
// result NonBinder
